System: NCI-H460
Assay: Cytotoxicity against human H460 cells assessed as growth inhibition after 72 hrs by MTT assay
Format: functional, cell-based
Conditions: NCI-H460, 72 h, read-out: IC50
Hi! Just check whether IC50 is below 1000 nM. Below gives yes (1), equal or above gives no (0).

C=CCc1cccc(/C=N/NC(=O)CN2CCN(Cc3ccccc3)CC2)c1O = no (0)
Fc1cccc(Cn2cc(/C=N/Nc3nc(N4CCOCC4)c4sccc4n3)c3ccccc32)c1 = yes (1)
CC(C)(O)c1cc2nc(N/N=C/c3cn(Cc4ccc(Cl)cc4Cl)c4ccccc34)nc(N3CCOCC3)c2s1 = no (0)
Fc1ccccc1Cn1cc(/C=N/Nc2nc(N3CCOCC3)c3sccc3n2)c2ccccc21 = yes (1)
CC(C)(O)c1cc2nc(N/N=C/c3cn(Cc4ccc(F)cc4)c4ccccc34)nc(N3CCOCC3)c2s1 = no (0)
CC(C)(O)c1cc2nc(N/N=C/c3cn(Cc4ccc(Cl)cc4)c4ccccc34)nc(N3CCOCC3)c2s1 = yes (1)

Say whether its IC50 is strictly beneath 1000 nM. Entry: N#Cc1cccc(Cn2cc(/C=N/Nc3nc(N4CCOCC4)c4sccc4n3)c3ccccc32)c1 yes (1)

Same question for C(=N\Nc1nc(N2CCOCC2)c2sccc2n1)/c1cn(Cc2ccccc2)c2ccccc12 please. no (0)

Same question for Clc1ccccc1Cn1c(/C=N/Nc2nc(N3CCOCC3)c3sccc3n2)nc2ccccc21 please. no (0)

====

Assay: Cytotoxicity against human U87MG cells assessed as growth inhibition after 72 hrs by MTT assay
Type: functional, cell-based, U-87MG ATCC
Details: U-87 MG
VALUE KIND: pIC50
Answer as the number alone; pIC50 is minus log10 of concentration in mol/L.

Fc1ccccc1Cn1cc(/C=N/Nc2nc(N3CCOCC3)c3sccc3n2)c2ccccc21 = 4.65
CC(C)(O)c1cc2nc(N/N=C/c3cn(Cc4ccc(Cl)cc4)c4ccccc34)nc(N3CCOCC3)c2s1 = 5.13

Which measured pIC50 value corresponds to Clc1ccc(Cn2c(/C=N/Nc3nc(N4CCOCC4)c4sccc4n3)nc3ccccc32)cc1 ? 4.87

Same question for Clc1cccc(Cn2cc(/C=N/Nc3nc(N4CCOCC4)c4sccc4n3)c3ccccc32)c1 please. 5.22

Same question for CC(C)(C)c1ccc(Cn2cc(/C=N/Nc3nc(N4CCOCC4)c4sccc4n3)c3ccccc32)cc1 please. 4.95

Same question for N#Cc1cccc(Cn2cc(/C=N/Nc3nc(N4CCOCC4)c4sccc4n3)c3ccccc32)c1 please. 5.01

Same question for CC(C)(O)c1cc2nc(N/N=C/c3cn(Cc4cccc(C#N)c4)c4ccccc34)nc(N3CCOCC3)c2s1 please. 5.18

====

Test system: NCI-H460
Test: Cytotoxicity against human H460 cells assessed as growth inhibition after 72 hrs by MTT assay
Type: functional, cell-based
Settings: NCI-H460, 72 h, read-out: IC50
Quick reference: IC50 of the listed items.
Number in µM, nothing else.

The cases that follow already have their IC50 on record.
CC(C)(O)c1cc2nc(NN)nc(N3CCOCC3)c2s1 = 29.7
CC(C)(O)c1cc2nc(N/N=C/c3cn(Cc4c(Cl)cccc4Cl)c4ccccc34)nc(N3CCOCC3)c2s1 = 4.03
Clc1ccc(Cn2cc(/C=N/Nc3nc(N4CCOCC4)c4sccc4n3)c3ccccc32)cc1 = 0.36
Clc1cccc(Cn2c(/C=N/Nc3nc(N4CCOCC4)c4sccc4n3)nc3ccccc32)c1 = 4.56
Clc1ccc(Cn2c(/C=N/Nc3nc(N4CCOCC4)c4sccc4n3)nc3ccccc32)cc1 = 2.6
Cc1ccc(Cn2cc(/C=N/Nc3nc(N4CCOCC4)c4sccc4n3)c3ccccc32)cc1 = 0.83
Clc1ccc(Cn2cc(/C=N/Nc3nc(N4CCOCC4)c4sccc4n3)c3ccccc32)c(Cl)c1 = 5.77
COc1cc(/C=N/Nc2nc(N3CCOCC3)nc(N3CCOCC3)n2)cc(OC)c1O = 9.2

Which measured IC50 value corresponds to NNc1nc(N2CCOCC2)c2sccc2n1 ? 42.2

Same question for CC(C)(O)c1cc2nc(N/N=C/c3cn(Cc4ccccc4F)c4ccccc34)nc(N3CCOCC3)c2s1 please. 1.1

Same question for Clc1cccc(Cn2cc(/C=N/Nc3nc(N4CCOCC4)c4sccc4n3)c3ccccc32)c1 please. 0.54

Same question for Clc1cccc(Cl)c1Cn1cc(/C=N/Nc2nc(N3CCOCC3)c3sccc3n2)c2ccccc21 please. 10.4

====

System: HepG2
Assay: Cytotoxicity against human HepG2 cells assessed as growth inhibition after 72 hrs by MTT assay
Assay type: functional, cell-based
Conditions: HepG2, 72 h
VALUE KIND: IC50 (µM)
Number in µM, nothing else.

CS(=O)(=O)N1CCN(Cc2cc3nc(-c4cccc5[nH]ncc45)nc(N4CCOCC4)c3s2)CC1 = 1

Moving on to the next compound.
Which measured IC50 value corresponds to Fc1cccc(Cn2cc(/C=N/Nc3nc(N4CCOCC4)c4sccc4n3)c3ccccc32)c1 ? 1.1

====

Tested on: NCI-H460
Assay: Cytotoxicity against human H460 cells assessed as growth inhibition after 72 hrs by MTT assay
Type: functional, cell-based
Conditions: NCI-H460, 72 h, read-out: IC50
pIC50: −log10 of the molar value.
Please note: y applies when pIC50 is 6 or greater, and n applies otherwise.

Is reported pIC50 greater than or equal to 6 here: CC(C)(C)c1ccc(Cn2c(/C=N/Nc3nc(N4CCOCC4)c4sccc4n3)nc3ccccc32)cc1 n

Same question for CC(C)(O)c1cc2nc(N/N=C/c3cn(Cc4cccc(F)c4)c4ccccc34)nc(N3CCOCC3)c2s1 please. y

Same question for CC(C)(O)c1cc2nc(N/N=C/c3cn(Cc4ccc(C#N)cc4)c4ccccc34)nc(N3CCOCC3)c2s1 please. n

====

Experiment: Cytotoxicity against human U87MG cells assessed as growth inhibition after 72 hrs by MTT assay
Assay type: functional, cell-based, U-87MG ATCC
Details: U-87 MG
pIC50: −log10 of the molar value.
Please note: met applies when pIC50 is 5 or greater, and not met applies otherwise.

Is reported pIC50 greater than or equal to 5 here: C(=N\Nc1nc(N2CCOCC2)c2sccc2n1)/c1cn(Cc2ccccc2)c2ccccc12 not met

====

System: NCI-H460
Assay: Cytotoxicity against human H460 cells assessed as growth inhibition after 72 hrs by MTT assay
Assay type: functional, cell-based
Details: NCI-H460, 72 h, read-out: IC50
VALUE KIND: log10 IC50 (log10 of the value in nM)
Quick note: numbers are log10 of IC50, with nM as the unit.

CC(C)(O)c1cc2nc(N/N=C/c3cn(Cc4cccc(Cl)c4)c4ccccc34)nc(N3CCOCC3)c2s1 = 2.92
Clc1ccccc1Cn1cc(/C=N/Nc2nc(N3CCOCC3)c3sccc3n2)c2ccccc21 = 3.60

Which measured log10 IC50 value corresponds to CC(C)(O)c1cc2nc(N/N=C/c3cn(Cc4cccc(Cl)c4Cl)c4ccccc34)nc(N3CCOCC3)c2s1 ? 3.86

Same question for Clc1cccc(Cn2c(/C=N/Nc3nc(N4CCOCC4)c4sccc4n3)nc3ccccc32)c1Cl please. 4.57

Same question for N#Cc1ccc(Cn2cc(/C=N/Nc3nc(N4CCOCC4)c4sccc4n3)c3ccccc32)cc1 please. 3.21

Same question for CC(C)(O)c1cc2nc(N/N=C/c3cn(Cc4cccc(C#N)c4)c4ccccc34)nc(N3CCOCC3)c2s1 please. 2.56

Same question for FC(F)(F)c1cccc(Cn2cc(/C=N/Nc3nc(N4CCOCC4)c4sccc4n3)c3ccccc32)c1 please. 2.72

====

Quick reference: IC50 of the listed items.
Tested on: NCI-H460
Assay: Cytotoxicity against human H460 cells assessed as growth inhibition after 72 hrs by MTT assay
Assay type: functional, cell-based
Conditions: NCI-H460, 72 h, read-out: IC50
Number in nM, nothing else.

The cases that follow already have their IC50 on record.
CC(C)(C)c1ccc(Cn2cc(/C=N/Nc3nc(N4CCOCC4)c4sccc4n3)c3ccccc32)cc1 = 380
C(=N\Nc1nc(N2CCOCC2)c2sccc2n1)/c1nc2ccccc2n1Cc1ccccc1 = 25600
Clc1ccc(Cn2cc(/C=N/Nc3nc(N4CCOCC4)c4sccc4n3)c3ccccc32)cc1Cl = 740

Moving on to the next compound.
Which measured IC50 value corresponds to Fc1ccc(Cn2cc(/C=N/Nc3nc(N4CCOCC4)c4sccc4n3)c3ccccc32)cc1 ? 410

====

Test: Cytotoxicity against human U87MG cells assessed as growth inhibition after 72 hrs by MTT assay
Assay type: functional, cell-based, U-87MG ATCC
Details: U-87 MG
Hi! Just check whether IC50 is below 8 µM. Below gives Met, equal or above gives Not met.

Some solved entries appear below for comparison.
Fc1ccc(Cn2cc(/C=N/Nc3nc(N4CCOCC4)c4sccc4n3)c3ccccc32)cc1 = Not met
Clc1ccc(Cn2cc(/C=N/Nc3nc(N4CCOCC4)c4sccc4n3)c3ccccc32)cc1Cl = Not met
CC(C)(O)c1cc2nc(N/N=C/c3cn(Cc4cccc(Cl)c4)c4ccccc34)nc(N3CCOCC3)c2s1 = Not met

Say whether its IC50 is strictly beneath 8 µM. Entry: Clc1ccc(Cn2cc(/C=N/Nc3nc(N4CCOCC4)c4sccc4n3)c3ccccc32)cc1 Not met

Same question for CC(C)(O)c1cc2nc(N/N=C/c3cn(Cc4ccccc4F)c4ccccc34)nc(N3CCOCC3)c2s1 please. Met

Same question for Fc1cccc(Cn2cc(/C=N/Nc3nc(N4CCOCC4)c4sccc4n3)c3ccccc32)c1 please. Not met

Same question for FC(F)(F)c1cccc(Cn2cc(/C=N/Nc3nc(N4CCOCC4)c4sccc4n3)c3ccccc32)c1 please. Met

Same question for Cc1ccc(Cn2cc(/C=N/Nc3nc(N4CCOCC4)c4sccc4n3)c3ccccc32)cc1 please. Met

The values you see were collected from ChEMBL document CHEMBL2086281.
